Consider the following molecules and their measured pIC50 readings.
- target entity: Human TASK-1 channels (Homo sapiens (Human))
- Sequence (O14649 whole entry): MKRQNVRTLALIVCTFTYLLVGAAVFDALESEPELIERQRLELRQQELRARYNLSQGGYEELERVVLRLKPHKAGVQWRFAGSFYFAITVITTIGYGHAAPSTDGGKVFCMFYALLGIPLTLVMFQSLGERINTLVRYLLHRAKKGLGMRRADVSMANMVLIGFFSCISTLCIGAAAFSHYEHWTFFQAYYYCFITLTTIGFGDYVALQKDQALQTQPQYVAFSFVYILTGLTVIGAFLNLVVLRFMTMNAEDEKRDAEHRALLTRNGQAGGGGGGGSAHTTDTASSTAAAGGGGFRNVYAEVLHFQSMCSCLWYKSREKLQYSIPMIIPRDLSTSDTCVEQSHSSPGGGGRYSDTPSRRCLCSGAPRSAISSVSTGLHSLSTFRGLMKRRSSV
- experiment description: Determination of the activity on the TASK-1 channel in Xenopus oocytes (two-microelectrode voltage clamp)
- setup conditions: human TASK-1 expressed in Xenopus oocytes, room temperature; read-out: IC50 value for TASK-1 inhibition
pIC50: −log10 of the molar value.

>  <molecule>
CC[C@@H](NC(=O)c1cc(C(=O)NC(C)c2nnn(C)n2)n2c1COCC2)c1ccccc1 (stereo partly shown) [16rn]

>  <pIC50>
6.74

$$$$
>  <molecule>
CC[C@@H](NC(=O)c1cc(C(=O)NCC(C)C)n2c1COCC2)c1ccccc1 [16gf]

>  <pIC50>
6.47

$$$$
>  <molecule>
CC[C@@H](NC(=O)c1cc(C(=O)NCc2cnccn2)n2c1COCC2)c1ccccc1 [16gt]

>  <pIC50>
6.51

$$$$
>  <molecule>
CC[C@@H](NC(=O)c1cc(C(=O)NCc2cnccn2)c2n1CCOC2)c1ccc(F)cc1Cl [16ko]

>  <pIC50>
6.51

$$$$
